The measured values listed here are drawn from paper PMC3486838.

IC50 for assorted molecules
target: human CYP11B1 (Homo sapiens, UniProt P15538)
Construct: expressed in transfected cells; host or cells: V79MZh cells
Sequence (P15538 25-503): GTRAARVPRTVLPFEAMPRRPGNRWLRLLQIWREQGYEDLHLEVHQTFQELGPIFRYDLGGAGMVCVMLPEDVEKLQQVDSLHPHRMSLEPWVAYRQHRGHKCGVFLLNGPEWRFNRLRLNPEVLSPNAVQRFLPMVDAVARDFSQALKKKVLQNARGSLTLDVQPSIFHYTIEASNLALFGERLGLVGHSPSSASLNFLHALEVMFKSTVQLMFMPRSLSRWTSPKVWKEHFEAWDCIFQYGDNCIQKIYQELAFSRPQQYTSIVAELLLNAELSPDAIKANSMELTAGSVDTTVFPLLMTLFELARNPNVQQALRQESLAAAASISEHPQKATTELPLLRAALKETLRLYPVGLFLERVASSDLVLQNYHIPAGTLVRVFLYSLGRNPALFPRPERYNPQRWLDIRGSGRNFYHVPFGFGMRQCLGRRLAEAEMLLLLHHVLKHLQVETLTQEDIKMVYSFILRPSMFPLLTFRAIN
assay_procedure: Inhibition of CYP11B1 in V79 MZh cells expressing the enzyme
Format: cell-based
conditions: Hamster fibroblasts (V79 MZh) expressing human CYP11B1; substrate deoxycorticosterone, 100 nM; read-out: 11B1 IC50
Your answer is read as nM, so omit the unit and give the number.

Worked examples, 3 molecules total:
>>> measurement("O=C1CCCC(c2cccnc2)CCC1")
1350
>>> measurement("OC1CCC=C(c2cccnc2)CCC1 (centres unmarked)")
348
>>> measurement("O=C1CC2CC(c3cccnc3)CC2C1 (centres unmarked) [Compound 3, 5-Pyridin-3-yl-hexahydro-pentalen-2-one]")
306

Q) Sample OC1CC2C=C(c3cccnc3)CC2C1 (centres unmarked) — what was its IC50?
A) 663

Q) For the molecule shown here, COC1CCc2cc(-c3cccnc3)ccc2C1 (centres unmarked) [II, reference compound] , give the reported IC50.
A) 1140

* * *

target: human CYP11B2 (Homo sapiens)
Construct: expressed in transfected cells; host or cells: V79MZh cells
Sequence (P19099 25-503): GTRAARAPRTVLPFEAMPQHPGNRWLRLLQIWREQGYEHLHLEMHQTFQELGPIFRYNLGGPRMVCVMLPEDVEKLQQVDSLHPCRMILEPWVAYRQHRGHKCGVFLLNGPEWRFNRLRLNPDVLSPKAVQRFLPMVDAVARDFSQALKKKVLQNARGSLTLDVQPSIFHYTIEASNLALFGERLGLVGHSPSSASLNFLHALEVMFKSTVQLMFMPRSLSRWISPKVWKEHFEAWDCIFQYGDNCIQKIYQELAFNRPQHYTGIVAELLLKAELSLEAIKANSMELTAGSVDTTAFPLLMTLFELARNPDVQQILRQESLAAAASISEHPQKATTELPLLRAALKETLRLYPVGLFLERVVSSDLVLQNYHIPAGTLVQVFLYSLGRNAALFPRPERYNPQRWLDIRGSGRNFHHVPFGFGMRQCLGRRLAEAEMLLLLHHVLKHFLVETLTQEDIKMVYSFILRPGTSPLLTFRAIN
assay_procedure: Inhibition of CYP11B2 in V79 MZh cells expressing the enzyme
Assay type: cell-based
conditions: Hamster fibroblasts (V79 MZh) expressing human CYP11B2; substrate deoxycorticosterone, 100 nM; read-out: 11B2 IC50
Description: V79MZh cells expressing human CYP11B1 [45] or CYP11B2 [44] were incubated with [^14C]-11-deoxycorticosterone as substrate. The assay was performed as previously described.
endpoint_name: pIC50
Interpret pIC50 as the negative base-10 log of the concentration measured in mol/L.

# annotated cases, reported pIC50 shown
>>> measurement("COC1CCc2cc(-c3cccnc3)ccc2C1 (centres unmarked) [II, reference compound]")
8.52
>>> measurement("c1cncc(C2CCC3CCCCC3C2)c1 (centres unmarked) [Compound 1, 3-(Decahydro-naphthalen-2-yl)-pyridine]")
6.80
>>> measurement("C1=C(c2cccnc2)C2CCC1C2 (centres unmarked) [Compound 18, 3-Bicyclo[2.2.1]hept-2-en-2-yl-pyridine]")
6.05
>>> measurement("c1cncc(C2CC3CCC2C3)c1 (centres unmarked)")
7.00
>>> measurement("OC1CC2CC(c3cccnc3)CC2C1 (centres unmarked) [Compound 6, 5-Pyridin-3-yl-octahydro-pentalen-2-ol]")
6.46

Q) Find the recorded pIC50 belonging to "c1cncc(C2CCCCCCCCC2)c1" and report it.
A) 7.66

Q) Form field: reported pIC50 of "C1=C(c2cccnc2)CCCCCCCCCC1"
A) 5.93

Q) Which pIC50 value belongs to CC12CCC(c3cccnc3)=CC1=CCCC2=O (racemic) ?
A) 6.34
